- MEASUREMENT NOTES: Cytotoxicity against mouse RAW264.7 cells assessed as cell survival at <= 32 uM after 24 hrs by MTT assay relative to control
- Format: cell-based
- SETTINGS: RAW264.7 cells, up to 32 µM, read-out: Activity
Where a SMILES comes first, the peptide text is derived from it.
Recorded viability at 24 h values for a group of compounds are listed next.

{"COMPOUND": "CC(C)C[C@H](NC(=O)[C@H](CCCNC(=N)N)NC(=O)[C@H](CCCCN)NC(=O)[C@H](CCCNC(=N)N)NC(=O)[C@@H](NC(=O)[C@H](Cc1c[nH]c2ccccc12)NC(=O)[C@H](CCCCN)NC(=O)[C@H](CCCNC(=N)N)NC(=O)[C@H](CC(C)C)NC(=O)[C@H](Cc1c[nH]c2ccccc12)NC(=O)[C@@H](N)CCCNC(=N)N)[C@@H](C)O)C(=O)N[C@@H](CCCCN)C(N)=O (H-RWLRKWTRKRLK-NH2)", "viability at 24 h": "≥ 70%"}
{"COMPOUND": "CC(C)C[C@H](NC(=O)[C@H](CCCNC(=N)N)NC(=O)[C@H](Cc1c[nH]c2ccccc12)NC(=O)[C@H](CCCNC(=N)N)NC(=O)[C@@H](NC(=O)[C@H](Cc1c[nH]c2ccccc12)NC(=O)[C@H](Cc1c[nH]c2ccccc12)NC(=O)[C@H](CCCNC(=N)N)NC(=O)[C@H](CC(C)C)NC(=O)[C@H](Cc1c[nH]c2ccccc12)NC(=O)[C@@H](N)CCCNC(=N)N)[C@@H](C)O)C(=O)N[C@@H](CCCCN)C(N)=O (H-RWLRWWTRWRLK-NH2)", "viability at 24 h": "≥ 70%"}

###

- Test system: Salmonella typhimurium
- MEASUREMENT NOTES: Antibacterial activity against Salmonella enterica serovar typhimurium C77-31 incubated for 18 to 24 hrs by broth microdilution method
- Assay type: functional, Salmonella enterica subsp. enterica serovar Typhimurium
Where a SMILES comes first, the peptide text is derived from it.
Reported MIC values are given for each entry in this list.
ATTRIBUTE MEASURED: MIC (µM)

{"COMPOUND": "CC(C)(O/N=C(\\C(=O)N[C@@H]1C(=O)N2C(C(=O)[O-])=C(C[n+]3ccccc3)CS[C@H]12)c1csc(N)n1)C(=O)O", "LIMIT OPERATOR": "=", "OBSERVED VALUE": 0.5}
{"COMPOUND": "CC(C)C[C@H](NC(=O)[C@H](CCCNC(=N)N)NC(=O)[C@H](CCCCN)NC(=O)[C@H](CCCNC(=N)N)NC(=O)[C@@H](NC(=O)[C@H](CCCCN)NC(=O)[C@H](CCCCN)NC(=O)[C@H](CCCNC(=N)N)NC(=O)[C@H](CC(C)C)NC(=O)[C@H](CCCNC(=N)N)NC(=O)[C@@H](N)CCCNC(=N)N)[C@@H](C)O)C(=O)N[C@@H](CCCCN)C(N)=O (H-RRLRKKTRKRLK-NH2)", "LIMIT OPERATOR": ">", "OBSERVED VALUE": 128}
{"COMPOUND": "CN[C@H](CC(C)C)C(=O)N[C@H]1C(=O)N[C@@H](CC(N)=O)C(=O)N[C@H]2C(=O)N[C@H]3C(=O)N[C@H](C(=O)N[C@H](C(=O)O)c4cc(O)cc(O)c4-c4cc3ccc4O)[C@H](O)c3ccc(c(Cl)c3)Oc3cc2cc(c3O[C@@H]2O[C@H](CO)[C@@H](O)[C@H](O)[C@H]2O[C@H]2C[C@](C)(N)[C@H](O)[C@H](C)O2)Oc2ccc(cc2Cl)[C@H]1O", "LIMIT OPERATOR": "=", "OBSERVED VALUE": 128}
{"COMPOUND": "CC(C)C[C@H](NC(=O)[C@H](CCCNC(=N)N)NC(=O)[C@H](CCCCN)NC(=O)[C@H](CCCNC(=N)N)NC(=O)[C@@H](NC(=O)[C@H](Cc1c[nH]c2ccccc12)NC(=O)[C@H](CCCCN)NC(=O)[C@H](CCCNC(=N)N)NC(=O)[C@H](CC(C)C)NC(=O)[C@H](Cc1c[nH]c2ccccc12)NC(=O)[C@@H](N)CCCNC(=N)N)[C@@H](C)O)C(=O)N[C@@H](CCCCN)C(N)=O (H-RWLRKWTRKRLK-NH2)", "LIMIT OPERATOR": "=", "OBSERVED VALUE": 64}
{"COMPOUND": "CC(C)C[C@H](NC(=O)[C@H](CCCNC(=N)N)NC(=O)[C@H](Cc1c[nH]c2ccccc12)NC(=O)[C@H](CCCNC(=N)N)NC(=O)[C@@H](NC(=O)[C@H](CCCCN)NC(=O)[C@H](Cc1c[nH]c2ccccc12)NC(=O)[C@H](CCCNC(=N)N)NC(=O)[C@H](CC(C)C)NC(=O)[C@H](CCCNC(=N)N)NC(=O)[C@@H](N)CCCNC(=N)N)[C@@H](C)O)C(=O)N[C@@H](CCCCN)C(N)=O (H-RRLRWKTRWRLK-NH2)", "LIMIT OPERATOR": "=", "OBSERVED VALUE": 32}
{"COMPOUND": "C[C@@H](O)[C@H](NC(=O)[C@H](CCCNC(=N)N)NC(=O)[C@H](Cc1c[nH]c2ccccc12)NC(=O)[C@H](CCCNC(=N)N)NC(=O)[C@@H](NC(=O)[C@H](CCCNC(=N)N)NC(=O)[C@H](Cc1c[nH]c2ccccc12)NC(=O)[C@H](CCCNC(=N)N)NC(=O)[C@@H](NC(=O)[C@H](CCCNC(=N)N)NC(=O)[C@@H](N)Cc1c[nH]c2ccccc12)[C@@H](C)O)[C@@H](C)O)C(=O)N[C@@H](CCCNC(=N)N)C(N)=O (H-WRTRWRTRWRTR-NH2)", "LIMIT OPERATOR": "=", "OBSERVED VALUE": 4}
{"COMPOUND": "CC[C@H]1OC(=O)[C@H](C)[C@@H](O[C@H]2C[C@@](C)(OC)[C@@H](O)[C@H](C)O2)[C@H](C)[C@@H](O[C@@H]2O[C@H](C)C[C@H](N(C)C)[C@H]2O)[C@](C)(O)C[C@@H](C)C(=O)[C@H](C)[C@@H](O)[C@]1(C)O", "LIMIT OPERATOR": "=", "OBSERVED VALUE": 32}
{"COMPOUND": "CC(C)C[C@H](NC(=O)[C@H](CCCNC(=N)N)NC(=O)[C@H](Cc1c[nH]c2ccccc12)NC(=O)[C@H](CCCNC(=N)N)NC(=O)[C@@H](NC(=O)[C@H](CCCCN)NC(=O)[C@H](Cc1c[nH]c2ccccc12)NC(=O)[C@H](CCCNC(=N)N)NC(=O)[C@H](CC(C)C)NC(=O)[C@H](Cc1c[nH]c2ccccc12)NC(=O)[C@@H](N)CCCNC(=N)N)[C@@H](C)O)C(=O)N[C@@H](CCCCN)C(N)=O (H-RWLRWKTRWRLK-NH2)", "LIMIT OPERATOR": "=", "OBSERVED VALUE": 8}
{"COMPOUND": "CO[C@H]1/C=C/O[C@@]2(C)Oc3c(C)c(O)c4c(O)c(c(/C=N/N5CCN(C)CC5)c(O)c4c3C2=O)NC(=O)/C(C)=C\\C=C\\[C@H](C)[C@H](O)[C@@H](C)[C@@H](O)[C@@H](C)[C@H](OC(C)=O)[C@@H]1C", "LIMIT OPERATOR": "=", "OBSERVED VALUE": 4}
{"COMPOUND": "CC(C)C[C@H](NC(=O)[C@H](CCCNC(=N)N)NC(=O)[C@H](Cc1c[nH]c2ccccc12)NC(=O)[C@H](CCCNC(=N)N)NC(=O)[C@@H](NC(=O)[C@H](Cc1c[nH]c2ccccc12)NC(=O)[C@H](Cc1c[nH]c2ccccc12)NC(=O)[C@H](CCCNC(=N)N)NC(=O)[C@H](CC(C)C)NC(=O)[C@H](Cc1c[nH]c2ccccc12)NC(=O)[C@@H](N)CCCNC(=N)N)[C@@H](C)O)C(=O)N[C@@H](CCCCN)C(N)=O (H-RWLRWWTRWRLK-NH2)", "LIMIT OPERATOR": "=", "OBSERVED VALUE": 4}
{"COMPOUND": "N=C(N)NCCC[C@H](NC(=O)[C@H](Cc1ccccc1)NC(=O)[C@H](CCCNC(=N)N)NC(=O)[C@H](Cc1c[nH]c2ccccc12)NC(=O)[C@H](CCCNC(=N)N)NC(=O)[C@H](Cc1ccccc1)NC(=O)[C@H](CCCNC(=N)N)NC(=O)[C@H](Cc1c[nH]c2ccccc12)NC(=O)[C@H](CCCNC(=N)N)NC(=O)[C@H](Cc1ccccc1)NC(=O)[C@H](CCCNC(=N)N)NC(=O)[C@@H](N)Cc1c[nH]c2ccccc12)C(N)=O (H-WRFRWRFRWRFR-NH2)", "LIMIT OPERATOR": "=", "OBSERVED VALUE": 2}
